Biological target: Serotonin 3 (5-HT3) receptor (Rattus norvegicus, UniProt P35563+Q9JJ16)
Sequence (P35563 whole entry): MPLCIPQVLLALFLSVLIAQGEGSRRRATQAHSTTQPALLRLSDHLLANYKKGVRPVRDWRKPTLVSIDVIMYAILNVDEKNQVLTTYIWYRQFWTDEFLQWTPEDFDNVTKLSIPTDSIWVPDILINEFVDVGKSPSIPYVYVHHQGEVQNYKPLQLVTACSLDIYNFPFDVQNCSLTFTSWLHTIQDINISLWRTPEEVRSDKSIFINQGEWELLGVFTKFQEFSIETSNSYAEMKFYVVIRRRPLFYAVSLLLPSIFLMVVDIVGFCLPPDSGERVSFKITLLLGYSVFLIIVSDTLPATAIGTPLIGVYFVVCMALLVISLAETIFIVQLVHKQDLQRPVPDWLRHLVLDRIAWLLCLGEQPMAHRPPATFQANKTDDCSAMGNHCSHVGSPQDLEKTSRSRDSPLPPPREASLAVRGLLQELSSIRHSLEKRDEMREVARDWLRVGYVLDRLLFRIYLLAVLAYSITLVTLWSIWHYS
Sequence (Q9JJ16 whole entry): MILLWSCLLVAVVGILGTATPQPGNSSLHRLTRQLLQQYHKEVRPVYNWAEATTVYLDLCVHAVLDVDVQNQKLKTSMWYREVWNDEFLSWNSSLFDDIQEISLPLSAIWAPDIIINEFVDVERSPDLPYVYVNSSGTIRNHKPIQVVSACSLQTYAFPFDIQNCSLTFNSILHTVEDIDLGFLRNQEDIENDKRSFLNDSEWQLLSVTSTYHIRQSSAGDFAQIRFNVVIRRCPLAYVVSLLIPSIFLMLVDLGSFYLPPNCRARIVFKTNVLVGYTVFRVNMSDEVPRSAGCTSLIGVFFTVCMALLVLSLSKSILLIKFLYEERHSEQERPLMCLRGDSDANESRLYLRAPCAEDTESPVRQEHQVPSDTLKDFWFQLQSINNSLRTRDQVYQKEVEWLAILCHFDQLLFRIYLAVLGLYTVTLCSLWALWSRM
Assay: The binding affinity at 5-hydroxytryptamine 3 receptor was determined using [3H]LY-278584

[
  {
    "molecule": "COc1cccc2c1N1CCN(C)C[C@H]1c1ccccc1C2",
    "modifier": "=",
    "Ki [µM]": 1.65
  },
  {
    "molecule": "COc1cccc2c1N1CCN(C)CC1c1ccccc1C2 (racemic)",
    "modifier": "=",
    "Ki [µM]": 2.9
  },
  {
    "molecule": "COc1cccc2c1N1CCN(C)C[C@@H]1c1ccccc1C2",
    "modifier": ">",
    "Ki [µM]": 5
  }
]

====

Biological target: 5-hydroxytryptamine receptor 2A (Rattus norvegicus)
Sequence (P14842 whole entry): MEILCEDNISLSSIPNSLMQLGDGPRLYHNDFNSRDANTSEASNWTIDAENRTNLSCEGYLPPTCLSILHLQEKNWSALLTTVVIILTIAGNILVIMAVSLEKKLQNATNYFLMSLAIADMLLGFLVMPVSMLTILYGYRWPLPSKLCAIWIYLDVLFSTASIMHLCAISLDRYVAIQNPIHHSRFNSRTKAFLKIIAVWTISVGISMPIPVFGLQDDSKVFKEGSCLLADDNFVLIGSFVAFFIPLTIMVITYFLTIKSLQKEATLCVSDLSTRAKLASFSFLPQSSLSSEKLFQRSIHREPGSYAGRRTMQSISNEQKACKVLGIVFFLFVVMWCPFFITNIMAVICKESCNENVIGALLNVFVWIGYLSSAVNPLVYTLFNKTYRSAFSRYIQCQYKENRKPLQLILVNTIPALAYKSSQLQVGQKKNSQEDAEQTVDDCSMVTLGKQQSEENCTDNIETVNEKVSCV
measurementLabel: log10(IC50) (log10 of the value in nM)

[
  {
    "molecule": "COc1cccc2c1N1CCN(C)C[C@H]1c1ccccc1C2",
    "log10(IC50)": -0.12
  },
  {
    "molecule": "COc1cccc2c1N1CCN(C)CC1c1ccccc1C2 (racemic)",
    "log10(IC50)": -0.15
  },
  {
    "molecule": "CN1CCN2c3c(cccc3OS(=O)(=O)C(F)(F)F)Cc3ccccc3C2C1 (racemic)",
    "log10(IC50)": 2.44
  },
  {
    "molecule": "COc1cccc2c1N1CCN(C)C[C@@H]1c1ccccc1C2",
    "log10(IC50)": -0.26
  },
  {
    "molecule": "CN1CCN2c3c(O)cccc3Cc3ccccc3C2C1 (racemic)",
    "log10(IC50)": 1.08
  }
]

====

Assay: The binding affinity at the Histamine H1 receptor determined using [3H]pyrilamine
Parameters: species or system Cavia porcellus
pKi: −log10 of the molar value.
# label = T if pKi >= 8 else F

[
  {
    "compound": "CN1CCN2c3ccccc3Cc3ccccc3C2C1 (racemic)",
    "className": "T"
  },
  {
    "compound": "CN1CCN2c3c(O)cccc3Cc3ccccc3C2C1 (racemic)",
    "className": "F"
  },
  {
    "compound": "CN1CCN2c3ncccc3Cc3ccccc3C2C1 (racemic)",
    "className": "T"
  }
]
